Biological target: Adrenergic receptor alpha-2 (Rattus norvegicus, UniProt P22086+P19328+P22909)
Assay: The compound was tested in vitro for binding affinity against Alpha-2 adrenergic receptor using [3H]clonidine
Assay type: protein assay
Details: read-out: Ki
measurement kind: Ki (µM)
Field format: number, assumed µM, no unit text.

[Q] Would you kindly share the measured Ki for NS(=O)(=O)c1ccc2c(c1)CNC(CO)C2 (stereo unspecified) ?
[A] 1400

----------
Let's go through some recorded Ki values for UniProtKB P10938 together.
Sequence (P10938 whole entry): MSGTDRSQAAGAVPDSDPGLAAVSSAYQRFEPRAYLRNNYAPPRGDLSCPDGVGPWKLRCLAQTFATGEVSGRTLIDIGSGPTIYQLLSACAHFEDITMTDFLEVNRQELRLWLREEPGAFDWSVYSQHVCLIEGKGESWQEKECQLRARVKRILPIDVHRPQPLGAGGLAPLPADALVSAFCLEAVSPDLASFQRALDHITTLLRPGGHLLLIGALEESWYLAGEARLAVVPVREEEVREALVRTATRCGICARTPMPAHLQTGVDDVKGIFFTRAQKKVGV
Return type: number; implicit unit µM.

INSERT INTO assay_data (molecule, unit_spec, measured_number) VALUES
  ('Clc1ccc2c(c1Cl)CNCC2', 'µM', 0.22),
  ('COc1ccc2c3c([nH]c2c1)C=NCC3 [CGS-19281A]', 'µM', 2.7);

Now for another entry.
[Q] Record lookup: for UniProtKB P10938, what Ki belongs to CS(=O)(=O)c1ccc2c(c1)CNC(C(F)(F)F)C2 (stereo not drawn) ?
[A] 36
